test: probe aEGFR binding to arrayed compounds – biochemical, biotinylated probe, 635/667 nm fluorescence, primary screen (AID 1097); conditions: small-molecule microarray, higher = more signal;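 also: probe is a biotinylated anti-EGFR antibody binding compounds printed on slides; score combines fluorescence near 667 nm and signal to noise of each spot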
Attribute: composite z-score
value type: composite z-score

1) C=C(C(=O)CC[C@@H](OC(=O)c1cccnc1)c1ccc(OCCO)cc1)C(C)C :: -0.0972
2) COc1ccc(C(=O)Nc2cccc(CN3C(=O)[C@@]4(O[C@@H](CC(=O)N5Cc6ccccc6C[C@H]5CO)[C@H]([Si](C)(C)c5ccc(OC)cc5)[C@H]4C)c4ccccc43)c2)cc1 :: 0.0276
3) O=[N+]([O-])c1ccc(C[n+]2ccc(CCCO)cc2)o1 :: 0.296
4) O=C1C2C=CC(C(O)C3CC=CCC3)N(n3cnnc3)C2C(=O)N1Cc1ccccc1 (centres undefined) :: -0.314
5) O=C1NC(=O)C2C1C=CC(C(O)c1cccs1)N2Nc1ccccn1 (centres undefined) :: 0.119
6) O=C(NCC(O)CO)[C@@]1(Cc2ccccc2)COC(c2ccc(OCCCO)cc2)=N1 (some centres undefined) :: 0.132
7) CC(C)C(O)C1C=CC2C(=O)N(C)C(=O)C2N1N1CCCCC1 (centres undefined) :: 0.0635
8) CC(C)C(CO)N1C(=O)[C@@H]2[C@H]3C(=O)OCC=C[C@H]3OC23C=CCN(c2ccc4ccccc4c2)C(=O)[C@@H]13 (some centres undefined) :: -0.127
9) O=C1C[C@@](C(=O)O)(c2ccc([N+](=O)[O-])cc2)[C@@H](c2ccc(CO)cc2I)N1C1CCCCC1 :: -0.0828
